Molecular target: T1, human PrRP receptor GPR10 (human, UniProt P49683 1-370)
T1 construct: whole, on cells; also called GPR10 human receptor transfected in CHO cells; human GPR10 receptor
T1 sequence (looked up): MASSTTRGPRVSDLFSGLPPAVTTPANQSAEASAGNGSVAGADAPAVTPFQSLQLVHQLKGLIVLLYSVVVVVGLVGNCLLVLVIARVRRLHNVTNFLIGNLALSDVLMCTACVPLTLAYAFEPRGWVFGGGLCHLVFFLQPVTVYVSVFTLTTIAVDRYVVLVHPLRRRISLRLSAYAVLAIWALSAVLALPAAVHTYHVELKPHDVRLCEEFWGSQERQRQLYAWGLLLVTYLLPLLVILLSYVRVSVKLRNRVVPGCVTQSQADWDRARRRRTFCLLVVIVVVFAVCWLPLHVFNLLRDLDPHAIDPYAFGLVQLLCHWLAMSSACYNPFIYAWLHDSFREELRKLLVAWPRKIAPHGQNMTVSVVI
Test: competition with 125I-human PrRP31, CHO cells with human GPR10
pKi: −log10 of the molar value. Numbered stars: 1 amine (or outer) side, 2 acyl side, 3 side chain; on linkers, the order of the positions; unused ones are H or OH. Square brackets hold non-standard residues; d marks the D form. Side chains are listed from the residue outwards. Ends that are not written are not given here. * marks the point of attachment. γGlu = O=C(O)[C@H](CCC(=O)[*:2])N[*:1]; 1Nal = N[C@@H](Cc1cccc2ccccc12)C(=O)O; Stearoyl = CCCCCCCCCCCCCCCCCC(=O)*; Palmitoyl = CCCCCCCCCCCCCCCC(=O)*; Myristoyl = CCCCCCCCCCCCCC(=O)*; PheCl2 = dichlorophenylalanine; PheNO2 = nitrophenylalanine; Nle = CCCC[C@H](N)C(=O)O; Octanoyl = CCCCCCCC(=O)*
I would appreciate it if you labelled entries YES when pKi is 8 or higher, otherwise NO.

binder | labelClass
SETHRHSMEIK([γGlu-Palmitoyl])TPDINPAWYASRGIRPVGRF-NH2 [analog no. 55] | YES
Stearoyl-SRAHQHS[Nle]ETRTPDINPAWYTGRGIRPVGRF-NH2 [analog no. 9] | YES
SRAHQHS[Nle]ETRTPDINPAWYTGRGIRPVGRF-NH2 [analog no. 3] | YES
Myristoyl-SHQRPADTHWYPRG[Nle]FPTIGRITARNGEVSR (scrambled peptide; also called 20 scram) [analog no. 20] | NO
Palmitoyl-SRAHQHS[Nle]ETRTPDINPAWYTGRGIRPVGR[PheCl2]-NH2 [analog no. 15] | YES
SRAHQHS[Nle]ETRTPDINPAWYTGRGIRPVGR[1Nal]-NH2 [analog no. 10] | NO

Query: I'd appreciate it if you could say whether Octanoyl-SRAHQHS[Nle]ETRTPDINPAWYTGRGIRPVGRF-NH2 [analog no. 4] has pKi at least equal to 8.
Reply: YES

Query: Identify whether the reported pKi of the following binder is 8 or greater: Palmitoyl-SRAHQHS[Nle]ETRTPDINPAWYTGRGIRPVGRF-NH2 [analog no. 8]
Reply: YES

Query: Quick check: does Palmitoyl-SRAHQHS[Nle]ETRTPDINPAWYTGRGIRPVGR[PheNO2]-NH2 [analog no. 18] have pKi greater than or equal to 8?
Reply: YES
